Tested on: wheat germ agglutinin (Triticum aestivum), Alexa647-labelled
Experiment: wheat germ agglutinin binders on compound microarrays, profiling panel, artefact control for SMM control-protein annotation, biochemical, small-molecule microarray, 635/667 nm fluorescence (AID 1140);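 further: score merges 667 nm feature emission with signal to noise over triplicate slides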
Settings: WGA-A647 binding, 635 nm fluorescence, higher = more signal
Please enter fulfilled where composite z-score is greater than or equal to 0.4, and not fulfilled where it is lower.

# COMPOUND, LABEL VALUE
rows = [
    ("CC1O[C@H]2C3=C(C(=O)[C@@H]4O[C@@H]4[C@H]3O)[C@@H]1C1[C@@H](C)OC=C3[C@H](O)C4O[C@@H]4C(=NOCc4ccccc4)[C@]312 (stereo partly specified)", "not fulfilled"),
    ("COC(=O)[C@H](C)NC(=O)CCC1CC(OC(=O)NCc2ccc3c(c2)OCO3)CC2(CCCC(COC(=O)NCCc3ccccc3OC)O2)O1 (stereo partly specified)", "fulfilled"),
    ("COc1ccc(O[C@@H]2[C@H](O)CO[C@H]2C=Cc2ccccc2)cc1", "not fulfilled"),
    ("CC(C)CON=C1C[C@@H](O)[C@@H](O)[C@@H]2[C@@H]3C(=O)N(C4CCCCC4)C(=O)[C@@H]3CC[C@H]12", "fulfilled"),
    ("CCC=CCCC(OC(=O)c1ccc(Br)cc1)C1=CCCCC1=O (stereo unspecified)", "fulfilled"),
    ("CCOC(=O)[C@H](Cc1ccccc1)NC(=O)CCC1CC(OC(=O)NCc2cccc3ccccc23)CC2(CCCC(COC(=O)NCc3cccc(C(F)(F)F)c3)O2)O1 (stereo partly specified)", "not fulfilled"),
    ("CCOC(=O)NN=C1C[C@@H](O)[C@@H](O)[C@@H]2[C@@H]3C(=O)N(c4cccc(Oc5ccccc5)c4)C(=O)[C@@H]3CC[C@H]12", "not fulfilled"),
    ("COC(=O)CC=C[C@@H](C)[C@@H](C=NO[C@H](C)c1cn([C@H](CO)Cc2ccccc2)nn1)OC", "not fulfilled"),
    ("C[C@@H]1NC(=O)[C@@H](C)COC(=O)[C@H](C)NC(=O)[C@@H](C)COC1=O", "not fulfilled"),
    ("CC(C)[C@@H](OCc1ccccc1)[C@H](C)C=NOC[C@@H](O)COCc1ccco1", "not fulfilled"),
    ("Cc1cc2c(nc1C)CCCCN2CC(C)ON=C1[C@H]2CCn3c(=O)n(-c4ccccc4)c(=O)n3[C@H]2[C@H](O)[C@@H]2O[C@H]12 (stereo partly specified)", "fulfilled"),
    ("CC(=O)Nc1ccc([C@@H]2N[C@H](C(=O)O)CC[C@H]2C)cc1", "not fulfilled"),
    ("CO[C@H]1COC(=O)CC=C[C@H](C)[C@@H](OC)COC(=O)[C@H](C)COC(=O)CC=C[C@@H]1C", "not fulfilled"),
    ("CCCCC#C[C@@H]1C=C[C@H](Oc2ccc(C(=O)OC)cc2)[C@@H](COC(=O)OCC)O1", "not fulfilled"),
    ("COc1cccc([C@H]2Oc3ccc(OC)cc3C(=NOC[C@@H](C)[C@H](OCc3ccccc3)C(C)C)[C@@H]2O)c1", "fulfilled"),
]

###

Property: composite z-score; scope: individual compounds
Target: Albumin (Bos taurus) (UniProt P02769)
Sequence (P02769 whole entry, looked up): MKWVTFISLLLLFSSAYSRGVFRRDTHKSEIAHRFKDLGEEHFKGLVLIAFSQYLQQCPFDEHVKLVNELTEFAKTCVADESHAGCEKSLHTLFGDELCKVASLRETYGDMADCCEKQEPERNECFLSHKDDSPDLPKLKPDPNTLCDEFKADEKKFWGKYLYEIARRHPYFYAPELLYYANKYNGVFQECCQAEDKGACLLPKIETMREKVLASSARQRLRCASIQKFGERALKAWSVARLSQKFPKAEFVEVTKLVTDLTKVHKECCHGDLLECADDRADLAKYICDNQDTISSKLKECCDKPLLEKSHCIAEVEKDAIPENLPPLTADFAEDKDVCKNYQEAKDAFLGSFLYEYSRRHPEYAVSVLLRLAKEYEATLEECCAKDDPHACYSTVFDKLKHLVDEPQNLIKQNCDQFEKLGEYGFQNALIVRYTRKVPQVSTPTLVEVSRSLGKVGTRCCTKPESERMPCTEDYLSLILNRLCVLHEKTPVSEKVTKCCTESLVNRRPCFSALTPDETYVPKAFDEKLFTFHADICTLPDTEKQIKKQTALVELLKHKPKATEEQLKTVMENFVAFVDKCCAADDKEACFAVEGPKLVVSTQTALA
Test: bovine serum albumin binders on microarray, profiling panel, artefact control for SMM control protein annotation, biochemical, small-molecule microarray, Alexa647 label, 635/667 nm fluorescence (AID 1118);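 further: score merges 667 nm emission intensity and signal-to-noise per printed compound spot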
Conditions: BSA-A647 binding, fluorescence 635 nm, higher = more signal

# COMPOUND, composite z-score
measured = [
    ("C=CC[C@@H]1C=C[C@H](ON=C2[C@H]3CCn4c(=O)n(-c5ccccc5)c(=O)n4[C@H]3[C@H](O)[C@@H]3O[C@H]23)[C@@H](CO)O1", 0.127),
    ("CCOC(=O)[C@H](CC(C)C)NC(=O)CCC1CC(OC(=O)NCc2ccc3c(c2)OCO3)CC2(CCCC(COC(=O)NCC3CCCCC3)O2)O1 (stereo partly specified)", 0.235),
    ("CCOC(=O)NN=C1C[C@@H](O)[C@@H](O)[C@@H]2[C@@H]3C(=O)N(Cc4ccc5c(c4)OCO5)C(=O)[C@@H]3CC[C@H]12", 0.717),
    ("CC(C)CON=C1C[C@@H](O)[C@@H](O)[C@@H]2[C@@H]3C(=O)N(C4CCCCC4)C(=O)[C@@H]3CC[C@@H]12", 0.401),
    ("COC(=O)CC=C[C@@H](C)[C@@H](C=NO[C@@H]1O[C@H](COC(C)=O)[C@@H](OC(C)=O)[C@H](OC(C)=O)[C@H]1OC(C)=O)NS(=O)(=O)c1ccc(C)cc1", -0.228),
    ("COC(=O)CC=C[C@@H](C)[C@@H](C=NO[C@H](C)c1cn([C@H](CO)Cc2ccccc2)nn1)OC", 0.113),
]

###

Assay: small-molecule microarray binders of probe aCHRDL2, primary screen, biochemical, biotinylated probe, 635/667 nm fluorescence (AID 1100)
Details: higher = more signal
Please enter criterion met where composite z-score is greater than or equal to -0.4, and criterion not met where it is lower.

# COMPOUND, LABEL VALUE
data = [
    ("C#CCCCON=C1[C@H]2CCn3c(=O)n(-c4ccccc4)c(=O)n3[C@H]2[C@H](O)[C@@H]2O[C@H]12", "criterion not met"),
    ("COC(=O)CC=C[C@@H](C)[C@@H]1C=C[C@H](O)[C@@H](CO)O1", "criterion not met"),
    ("CON=C[C@@H](C)[C@H](OCc1ccccc1)C(C)C", "criterion met"),
    ("COC(=O)[C@H](C)NC(=O)CCC1CC(OC(=O)NCc2ccc3c(c2)OCO3)CC2(CCCC(COC(=O)NCC(c3ccccc3)c3ccccc3)O2)O1 (stereo not given in full)", "criterion not met"),
    ("COC(=O)[C@H]1O[C@@H](c2c(OC)c(OC)c(C)c(OC)c2OC)[C@H](C)[C@@H](O)[C@H]1C", "criterion met"),
    ("CCOC(=O)[C@H](CC(C)C)NC(=O)CCC1CC(OC(=O)NCc2cccc3ccccc23)CC2(CCCC(COC(=O)NCCC(C)C)O2)O1 (stereo not given in full)", "criterion met"),
    ("COc1cccc([C@H]2Oc3ccc(OC)cc3C(=NOC(C)CN3CCCCc4nc(C)c(C)cc43)[C@@H]2O)c1 (stereo not given in full)", "criterion met"),
    ("CCOC(=O)NN=C1C[C@@H](O)[C@@H](O)[C@@H]2[C@@H]3C(=O)N(c4cccc(Oc5ccccc5)c4)C(=O)[C@@H]3CC[C@H]12", "criterion not met"),
    ("CCOC(=O)[C@H](Cc1ccccc1)NC(=O)CCC1CC(OC(=O)NCc2cccc3ccccc23)CC2(CCCC(COC(=O)NCCC(C)C)O2)O1 (stereo not given in full)", "criterion met"),
    ("Cc1ccc(S(=O)(=O)N[C@H]2COC(=O)CC=C[C@H](C)[C@@H](NS(=O)(=O)c3ccc(C)cc3)COC(=O)CC=C[C@@H]2C)cc1", "criterion not met"),
    ("CCN1C(=O)[C@H]2[C@H]3[C@H](O)[C@H](O)CC(=NOCC(C)C)[C@@H]3CC[C@H]2C1=O", "criterion not met"),
    ("O=C1C[C@@H](O)[C@@H](O)[C@@H]2[C@@H]3C(=O)N(C[C@@H]4CCCO4)C(=O)[C@@H]3CC[C@@H]12", "criterion not met"),
    ("CCN1C(=O)[C@H]2[C@H]3[C@H](O)[C@H](O)CC(=NO[C@@H](C)c4cn([C@H](CO)Cc5ccccc5)nn4)[C@@H]3CC[C@H]2C1=O", "criterion not met"),
    ("CCOC(=O)CCN1C(=O)[C@H]2[C@H]3[C@H](O)[C@H](O)CC(=NOCc4ccccc4)[C@H]3CC[C@H]2C1=O", "criterion met"),
]

###

Experiment: FRG1 promoter luciferase signal modulators, primary screen, FRG1 inhibition for FSHD, cell-based, C2C12 myotubes, firefly/Renilla luciferase, luminescence (AID 1084)
Conditions: higher = more signal, called active from +8 up or from −8 down
Please enter true (1) where z-score is greater than or equal to 0.5, and false (0) where it is lower.

# COMPOUND, LABEL VALUE
data = [
    ("CCOC(=O)[C@H](Cc1ccccc1)NC(=O)CCC1CC(OC(=O)NCCc2ccc(F)cc2)CC2(CCCC(COC(=O)NCCCN3CCCC3=O)O2)O1 (some centres undefined)", "false (0)"),
    ("COC(=O)CC=C[C@@H](C)[C@@H](C=NO[C@H](C)c1cn([C@@H]2COC[C@H]2O)nn1)NS(=O)(=O)c1ccc(C)cc1", "false (0)"),
    ("Cc1ccc(S(=O)(=O)N[C@H]2COC(=O)CC=C[C@H](C)[C@@H](NS(=O)(=O)c3ccc(C)cc3)COC(=O)CC=C[C@@H]2C)cc1", "true (1)"),
    ("CC[C@@H](c1ccccc1)n1c(=O)n2n(c1=O)[C@H]1[C@H](O)[C@@H]3O[C@@H]3C(=O)[C@H]1CC2", "false (0)"),
    ("CCN1C(=O)[C@@H]2[C@H]3C(=CC[C@@H]2C1=O)C1(OCCCO1)[C@H]1O[C@H]1[C@H]3O", "true (1)"),
    ("O=C1CCCC=C1C(O)CCOC(c1ccccc1)(c1ccccc1)c1ccccc1 (centres undefined)", "false (0)"),
    ("COc1ccc(O[C@H]2C=C[C@@H](c3ccccc3)O[C@@H]2CON=C2[C@H]3CCn4c(=O)n(-c5ccccc5)c(=O)n4[C@H]3[C@H](O)[C@@H]3O[C@H]23)cc1", "false (0)"),
    ("O=C1C=C[C@@H](O)[C@@H]2[C@@H]3C(=O)N(C[C@@H]4CCCO4)C(=O)[C@@H]3CC[C@@H]12", "false (0)"),
    ("CC(=O)OC[C@H]1O[C@H](CCON=C2[C@H]3CCn4c(=O)n(-c5ccccc5)c(=O)n4[C@H]3[C@H](O)[C@@H]3O[C@H]23)C=C[C@@H]1OC(C)=O", "false (0)"),
    ("O=C1[C@H]2[C@H]3[C@H](O)[C@H](O)CC(=NOCc4ccccc4)[C@@H]3CC[C@H]2C(=O)N1C[C@@H]1CCCO1", "true (1)"),
    ("C[C@H]1CC[C@H]2C(=O)OC(CO)CN2[C@@H]1c1ccc(Br)cc1 (some centres undefined)", "false (0)"),
    ("CCc1cc2c(nc1CC)CCN(CCC(C)=NOC[C@H]1O[C@H](c3ccccc3)C=C[C@@H]1Oc1ccc(OC)cc1)C2", "true (1)"),
    ("CCN1C(=O)[C@H]2[C@H]3[C@H](O)[C@H](O)CC(=NOC[C@H]4O[C@H](c5ccccc5)C=C[C@@H]4Oc4ccc(OC)cc4)[C@@H]3CC[C@H]2C1=O", "true (1)"),
    ("O=C(NN=C1C[C@@H](O)[C@@H](O)[C@@H]2[C@@H]3C(=O)N(C4CCCCC4)C(=O)[C@@H]3CC[C@@H]12)OCc1ccccc1", "false (0)"),
]

Reference source for all entries: PubChem BioAssay
